The reported numbers originate from paper PMC10141580.

Examples of compounds with documented log10 of GI50 follow.
Test system: NCI-60 standardized human tumor cell line panel
Assay: cells
Type: cell-based
Conditions: OVCAR-8; read-out: GI50
measurementName: log10 of GI50 (log10 of the value in nM)

{"compound": "COc1cc2cc(C(=O)N3CC(CCl)c4c3cc(OC(=O)N3CCN(C)C5CSSCC53)c3ccccc43)[nH]c2c(OC)c1OC (mixture of isomers) [Me-SS66T-CBI-TMI]", "log10 of GI50": 0.93}
{"compound": "COc1cc2cc(C(=O)N3C[C@@H](CCl)c4c3cc(OC(=O)N(CCC(=O)N3CCN(C)CC3)C3CCCCC3)c3ccccc43)[nH]c2c(OC)c1OC", "log10 of GI50": 3.23}
{"compound": "COc1cc2cc(C(=O)N3C[C@@H](CCl)c4c3cc(OC(=O)N(C)CCSSCCN3CCOCC3)c3ccccc43)[nH]c2c(OC)c1OC [SS00M-CBI-TMI]", "log10 of GI50": 1.63}
{"compound": "COc1cc2cc(C(=O)N3C[C@@H](CCl)c4c3cc(OC(=O)N(CCC(=O)N3CCN(C)CC3)[C@H]3CCSSC3)c3ccccc43)[nH]c2c(OC)c1OC", "log10 of GI50": 2.28}
{"compound": "COc1cc2cc(C(=O)N3CC(CCl)c4c3cc(OC(=O)N3CCN(C)C5CSSCC53)c3ccccc43)[nH]c2c(OC)c1OC (mixture of isomers) [Me-SS66C-CBI-TMI]", "log10 of GI50": 2.18}

====

Tested on: panel of 140 standard cancer cell lines
Assay: ProliFiler-140 cancer cell line screen (CellTiterGlo, 72 h)
Format: cell-based
Conditions: Homo sapiens, ZR-75-1, ZR-75-1 (Breast); read-out: IC50 [M] (ProliFiler-140)
Method: Incubations were performed for 72 h before automated viability readout with CellTiterGlo (Figure 8). End of Figure S11 (part 5 of 5): ProliFiler-140 cancer cell line screening for cytotoxicity of the prodrugs. 8-data-point dose response curves from CellTiter-Glo® viability readout. ProliFiler-140 cell line panel part V
measurementName: IC50

{"compound": "COc1cccc2c1C(=O)c1c(O)c3c(c(O)c1C2=O)C[C@@](O)(C(=O)CO)C[C@@H]3O[C@H]1C[C@H](N)[C@H](O)[C@H](C)O1 [doxorubicin, reference compound]", "assayResult": "1.35e-06 M"}

====

Examples of molecules with documented NCI-60 screening: Log(GI50) follow.
System: NCI-60 standardized human tumor cell line panel
Test: cells
Format: cell-based
Conditions: cell line K-562 (LE:K-562); TMI sheet
measurementName: NCI-60 screening: Log(GI50)

{"molecule": "COc1cc2cc(C(=O)N3C[C@@H](CCl)c4c3cc(OC(=O)N(CCC(=O)N3CCN(C)CC3)[C@H]3CCSSC3)c3ccccc43)[nH]c2c(OC)c1OC", "assayResult": -6.79}
{"molecule": "COc1cc2cc(C(=O)N3C[C@@H](CCl)c4c3cc(OC(=O)N(CCC(=O)N3CCN(C)CC3)C3CCCCC3)c3ccccc43)[nH]c2c(OC)c1OC", "assayResult": -6.17}
{"molecule": "COc1cc2cc(C(=O)N3CC(CCl)c4c3cc(OC(=O)N3CCN(C)C5CSSCC53)c3ccccc43)[nH]c2c(OC)c1OC (mixture of isomers) [Me-SS66T-CBI-TMI]", "assayResult": -7.61}
{"molecule": "COc1cc2cc(C(=O)N3CC(CCl)c4c3cc(OC(=O)N3CCN(C)C5CSSCC53)c3ccccc43)[nH]c2c(OC)c1OC (mixture of isomers) [Me-SS66C-CBI-TMI]", "assayResult": -6.4}
